# TEST SUMMARY: Pharmacokinetics of monacolin K in plasma after single oral administration of purified monacolin K or red yeast rice
# Format: in vivo, male SD rats
# EXPERIMENTAL SETUP: male, SD, rat, plasma, po, 40 mg/kg, plasma; single administration, 40 mg/kg monacolin K or equivalent dose of red yeast rice; male SD rats; mean; read-out: AUC0–4h of monacolin K lactone, Mean
READOUT LABEL: AUC(0-t)

Look up AUC(0-t) for this molecule: CC[C@H](C)C(=O)O[C@H]1C[C@@H](C)C=C2C=C[C@H](C)[C@H](CC[C@@H]3C[C@@H](O)CC(=O)O3)[C@H]21 [Monacolin K, monacolin K]
2.48 ng·h/mL

====

# TEST SUMMARY: Pharmacokinetics of monacolin K in plasma after single oral administration of purified monacolin K or red yeast rice
# Format: in vivo, male SD rats
# EXPERIMENTAL SETUP: male, SD, rat, plasma, po, 40 mg/kg, plasma; single administration, 40 mg/kg monacolin K or equivalent; individual rats 101-103, 201-203; read-out: Cmax of monacolin K lactone, individual animals
READOUT LABEL: Cmax (ng/mL)
Numbers only, in ng/mL.

Look up Cmax for this compound: `CC[C@H](C)C(=O)O[C@H]1C[C@@H](C)C=C2C=C[C@H](C)[C@H](CC[C@@H]3C[C@@H](O)CC(=O)O3)[C@H]21`
3.11

====

# TEST SUMMARY: Pharmacokinetics of monacolin K in plasma after single oral administration of purified monacolin K or red yeast rice
# Type: in vivo, male SD rats
# EXPERIMENTAL SETUP: male, SD, rat, plasma, po, 40 mg/kg, plasma; single administration, 40 mg/kg monacolin K or equivalent dose of red yeast rice; male SD rats; mean; read-out: Cmax of monacolin K lactone, Mean
READOUT LABEL: Cmax (ng/mL)
One number for each entry, in ng/mL.

Look up Cmax for this molecule: CC[C@H](C)C(=O)O[C@H]1C[C@@H](C)C=C2C=C[C@H](C)[C@H](CC[C@@H]3C[C@@H](O)CC(=O)O3)[C@H]21 [Monacolin K, monacolin K]
2.48

The reported measurements were obtained from paper PMC8001704.
